Field: PBM E-score. Provide a value for each of the sequences that follow.
Target: Stb5 (UniProt P38699)
Sequence: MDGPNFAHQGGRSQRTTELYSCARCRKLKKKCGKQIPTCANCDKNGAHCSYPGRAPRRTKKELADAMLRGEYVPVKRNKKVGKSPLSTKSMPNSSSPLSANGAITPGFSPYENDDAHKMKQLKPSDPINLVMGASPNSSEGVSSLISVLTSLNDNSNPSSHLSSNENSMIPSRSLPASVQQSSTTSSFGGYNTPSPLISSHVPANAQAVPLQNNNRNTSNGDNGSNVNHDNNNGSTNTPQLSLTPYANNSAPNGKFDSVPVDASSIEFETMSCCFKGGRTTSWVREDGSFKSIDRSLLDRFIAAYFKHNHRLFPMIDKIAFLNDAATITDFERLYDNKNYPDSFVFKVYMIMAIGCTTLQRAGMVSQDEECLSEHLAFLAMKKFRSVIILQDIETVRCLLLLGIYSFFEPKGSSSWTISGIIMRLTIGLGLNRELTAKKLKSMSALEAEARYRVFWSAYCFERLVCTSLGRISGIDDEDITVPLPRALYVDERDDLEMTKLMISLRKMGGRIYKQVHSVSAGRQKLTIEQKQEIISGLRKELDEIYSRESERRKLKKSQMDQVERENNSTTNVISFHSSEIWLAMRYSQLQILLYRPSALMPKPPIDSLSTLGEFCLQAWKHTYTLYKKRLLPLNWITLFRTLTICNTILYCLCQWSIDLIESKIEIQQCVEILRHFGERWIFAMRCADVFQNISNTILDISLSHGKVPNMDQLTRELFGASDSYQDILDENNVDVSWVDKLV
Assay: PBM E-score (8-mer binding enrichment) (E-score (-0.5 to 0.5)); higher = stronger / more preferred TF binding
Conditions: protein concentration: 200 nM; construct: GST-full length
Whole data set: some 33,000 sequences, median “E-score (-0.5 to 0.5)” near -0.054, cut for the highest 2% near 0.35. What follows is part of a selection rich in the highest values, with near analogues and random picks from the rest.

// fetch PBM E-score for CACGCTGG ; system: Stb5 (UniProt P38699)
-0.14

Please go through the list and note PBM E-score for each sequence.
1. CGGCGCGA
2. CACCCCCC
3. CATACCGA
4. AGACACCG
5. CAAAGTAG

1: 0.373; 2: -0.14; 3: 0.279; 4: 0.436; 5: -0.164

For each listed entry, give its PBM E-score.
1. TACCCCGA
2. CTTCGCCA
3. AACGGTGA
4. CCATGGGC

0.407
0.0018
0.355
-0.0701

Batch lookup, PBM E-score per entry.
1. CACCCCGC
2. AATACCGG
3. GCCCCCGC
4. GTAACTAC
5. ATGGTTCG
6. CATACCGG
7. CCTTATCC

1. 0.394
2. 0.417
3. 0.256
4. 0.109
5. -0.0398
6. 0.193
7. 0.00435

Would you mind listing PBM E-score for each of the following sequences?
1. AGACACCC
2. CATACCGC

1: -0.231; 2: 0.307

====

Biological target: Stb5 (UniProt P38699)
Sequence: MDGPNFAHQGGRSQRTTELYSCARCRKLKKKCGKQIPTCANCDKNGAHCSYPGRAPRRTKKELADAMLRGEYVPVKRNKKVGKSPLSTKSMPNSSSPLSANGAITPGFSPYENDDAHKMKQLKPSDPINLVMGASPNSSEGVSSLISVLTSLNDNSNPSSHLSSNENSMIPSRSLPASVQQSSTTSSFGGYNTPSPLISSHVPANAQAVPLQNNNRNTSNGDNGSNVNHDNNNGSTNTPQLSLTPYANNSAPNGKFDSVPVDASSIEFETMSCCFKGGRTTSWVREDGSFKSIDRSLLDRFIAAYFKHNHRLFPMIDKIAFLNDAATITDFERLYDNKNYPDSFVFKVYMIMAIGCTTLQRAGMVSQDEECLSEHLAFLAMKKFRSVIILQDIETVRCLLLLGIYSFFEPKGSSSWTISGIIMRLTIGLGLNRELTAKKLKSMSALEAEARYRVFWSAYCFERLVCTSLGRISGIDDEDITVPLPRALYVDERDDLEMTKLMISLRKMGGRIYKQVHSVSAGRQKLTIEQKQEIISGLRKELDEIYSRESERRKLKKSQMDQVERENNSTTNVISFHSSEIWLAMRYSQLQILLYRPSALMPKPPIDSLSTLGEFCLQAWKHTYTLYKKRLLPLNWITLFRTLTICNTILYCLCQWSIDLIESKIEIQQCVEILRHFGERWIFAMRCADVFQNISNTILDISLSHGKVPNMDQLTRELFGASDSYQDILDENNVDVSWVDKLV
Test: PBM E-score (8-mer binding enrichment) (E-score (-0.5 to 0.5)); higher = stronger / more preferred TF binding
Details: protein concentration: 200 nM; construct: GST-full length
The full ranking holds about 33,000 sequences; the median of “E-score (-0.5 to 0.5)” is about -0.054, and the highest 2% start at about 0.35. This is one part of a sample in which the highest values are shown more often than they occur.
Metric name: PBM E-score

Determine reported PBM E-score for ACCGGGCC ; test system: Stb5 (UniProt P38699).
0.306

Please report PBM E-score for every entry that follows.
1. CTGCAGCC
2. TGGACCCA
3. AAGGCCTG
4. CAAACGCC
5. ATAACGCC
6. AACATCCC

1: -0.218; 2: -0.218; 3: -0.0882; 4: 0.243; 5: 0.359; 6: 0.149

Quick one: give me PBM E-score for each item below, same order please.
1. CGTCGGTC
2. GACCGGTA
3. AGCCGCCT
4. AATCGGTC

1: 0.325; 2: 0.231; 3: 0.0174; 4: 0.234

Each of the following entries comes with a recorded value; kindly state PBM E-score for each.
1. CCTCGGTA
2. AATCGGTA
3. AAAACGCG
4. ACGACCCA
5. ACCTCCAG
6. CGTGAGGC
7. CGGCTTAA

[0.223, 0.262, 0.0108, -0.191, -0.188, -0.133, 0.351]

Provide each entry's PBM E-score from the list below.
1. AAGGCCGA
2. CATACTGG

1. 0.46
2. -0.062

Can you give me PBM E-score for all of these, one by one?
1. CCGTGTTC
2. AATCGGTG
3. GAACGTTC
4. CGCATTGC
5. CACCGGTG

[0.137, 0.405, -0.114, -0.0359, 0.408]

Hi, could you look up PBM E-score for each item in my list?
1. AGTCGGTA
2. AAGGCCTT
3. CGGTGTGC
4. GGCCTTAA
5. ATCGATAA

1. 0.36
2. -0.163
3. 0.219
4. 0.377
5. -0.139

Required: PBM E-score, one value per sequence below.
1. CTAACGCC
2. ACCGGGGC
3. AAAACCCT
4. GGAGTTAA
5. TACCGGTA
6. AGGTGTTC
7. TCAGTGAA
8. AGGTGTCC

1: 0.316; 2: 0.359; 3: -0.074; 4: 0.398; 5: 0.36; 6: -0.101; 7: -0.111; 8: -0.164

For each of the sequences below, note its PBM E-score.
1. AAAACCCG
2. AAAAACCC
3. TGTCTTAA

0.379
0.226
0.00631

====

Molecular target: Stb5 (UniProt P38699)
Sequence: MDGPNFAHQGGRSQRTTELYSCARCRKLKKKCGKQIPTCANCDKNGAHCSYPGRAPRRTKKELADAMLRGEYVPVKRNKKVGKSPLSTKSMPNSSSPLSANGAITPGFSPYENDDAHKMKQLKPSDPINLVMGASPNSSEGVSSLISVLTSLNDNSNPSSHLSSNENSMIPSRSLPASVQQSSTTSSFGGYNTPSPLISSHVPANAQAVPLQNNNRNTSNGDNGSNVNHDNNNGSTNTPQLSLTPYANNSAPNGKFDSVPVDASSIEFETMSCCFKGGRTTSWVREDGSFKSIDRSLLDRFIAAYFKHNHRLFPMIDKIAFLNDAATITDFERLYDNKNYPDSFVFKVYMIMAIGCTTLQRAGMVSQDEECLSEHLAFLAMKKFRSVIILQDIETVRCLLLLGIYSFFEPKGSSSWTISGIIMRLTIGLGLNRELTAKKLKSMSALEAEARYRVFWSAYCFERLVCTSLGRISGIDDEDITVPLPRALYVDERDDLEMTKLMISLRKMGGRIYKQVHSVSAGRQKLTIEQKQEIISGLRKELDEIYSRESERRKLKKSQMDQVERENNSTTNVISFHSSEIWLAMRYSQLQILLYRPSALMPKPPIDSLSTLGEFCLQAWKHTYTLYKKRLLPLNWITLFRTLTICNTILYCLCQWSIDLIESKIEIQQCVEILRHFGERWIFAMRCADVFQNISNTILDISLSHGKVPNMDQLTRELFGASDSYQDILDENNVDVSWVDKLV
Experiment: PBM E-score (8-mer binding enrichment) (E-score (-0.5 to 0.5)); higher = stronger / more preferred TF binding
Settings: protein concentration: 200 nM; construct: GST-full length
Over roughly 33,000 sequences, “E-score (-0.5 to 0.5)” has its median near -0.054; the highest 2% begin near 0.35. Many of the other results were omitted from the sample, so the highest values are more common in it than they were.
Record form. Attribute: PBM E-score. Fill in for each entry.
Numbers only.

For orientation, consider the following solved cases.
Name the recorded PBM E-score of TCCACCAA , assay system Stb5 (UniProt P38699).
-0.103

Please report the measured PBM E-score for CATTGGCC tested on Stb5 (UniProt P38699).
-0.214

Return reported PBM E-score for target or system Stb5 (UniProt P38699), item AATTCCGA .
0.265

Take each entry in turn and give its PBM E-score.
1. CGTGTAAC
2. GGGCTAAC
3. CGTCATGA
4. AGACCAGC
5. AGGCGTTG
6. ACCGGTAC

[0.134, -0.0393, -0.0111, -0.285, -0.11, 0.397]
